- EXPERIMENTAL_SYSTEM: UniProt:Q5S007
- Sequence (Q5S007 whole entry, the tested form may be a part): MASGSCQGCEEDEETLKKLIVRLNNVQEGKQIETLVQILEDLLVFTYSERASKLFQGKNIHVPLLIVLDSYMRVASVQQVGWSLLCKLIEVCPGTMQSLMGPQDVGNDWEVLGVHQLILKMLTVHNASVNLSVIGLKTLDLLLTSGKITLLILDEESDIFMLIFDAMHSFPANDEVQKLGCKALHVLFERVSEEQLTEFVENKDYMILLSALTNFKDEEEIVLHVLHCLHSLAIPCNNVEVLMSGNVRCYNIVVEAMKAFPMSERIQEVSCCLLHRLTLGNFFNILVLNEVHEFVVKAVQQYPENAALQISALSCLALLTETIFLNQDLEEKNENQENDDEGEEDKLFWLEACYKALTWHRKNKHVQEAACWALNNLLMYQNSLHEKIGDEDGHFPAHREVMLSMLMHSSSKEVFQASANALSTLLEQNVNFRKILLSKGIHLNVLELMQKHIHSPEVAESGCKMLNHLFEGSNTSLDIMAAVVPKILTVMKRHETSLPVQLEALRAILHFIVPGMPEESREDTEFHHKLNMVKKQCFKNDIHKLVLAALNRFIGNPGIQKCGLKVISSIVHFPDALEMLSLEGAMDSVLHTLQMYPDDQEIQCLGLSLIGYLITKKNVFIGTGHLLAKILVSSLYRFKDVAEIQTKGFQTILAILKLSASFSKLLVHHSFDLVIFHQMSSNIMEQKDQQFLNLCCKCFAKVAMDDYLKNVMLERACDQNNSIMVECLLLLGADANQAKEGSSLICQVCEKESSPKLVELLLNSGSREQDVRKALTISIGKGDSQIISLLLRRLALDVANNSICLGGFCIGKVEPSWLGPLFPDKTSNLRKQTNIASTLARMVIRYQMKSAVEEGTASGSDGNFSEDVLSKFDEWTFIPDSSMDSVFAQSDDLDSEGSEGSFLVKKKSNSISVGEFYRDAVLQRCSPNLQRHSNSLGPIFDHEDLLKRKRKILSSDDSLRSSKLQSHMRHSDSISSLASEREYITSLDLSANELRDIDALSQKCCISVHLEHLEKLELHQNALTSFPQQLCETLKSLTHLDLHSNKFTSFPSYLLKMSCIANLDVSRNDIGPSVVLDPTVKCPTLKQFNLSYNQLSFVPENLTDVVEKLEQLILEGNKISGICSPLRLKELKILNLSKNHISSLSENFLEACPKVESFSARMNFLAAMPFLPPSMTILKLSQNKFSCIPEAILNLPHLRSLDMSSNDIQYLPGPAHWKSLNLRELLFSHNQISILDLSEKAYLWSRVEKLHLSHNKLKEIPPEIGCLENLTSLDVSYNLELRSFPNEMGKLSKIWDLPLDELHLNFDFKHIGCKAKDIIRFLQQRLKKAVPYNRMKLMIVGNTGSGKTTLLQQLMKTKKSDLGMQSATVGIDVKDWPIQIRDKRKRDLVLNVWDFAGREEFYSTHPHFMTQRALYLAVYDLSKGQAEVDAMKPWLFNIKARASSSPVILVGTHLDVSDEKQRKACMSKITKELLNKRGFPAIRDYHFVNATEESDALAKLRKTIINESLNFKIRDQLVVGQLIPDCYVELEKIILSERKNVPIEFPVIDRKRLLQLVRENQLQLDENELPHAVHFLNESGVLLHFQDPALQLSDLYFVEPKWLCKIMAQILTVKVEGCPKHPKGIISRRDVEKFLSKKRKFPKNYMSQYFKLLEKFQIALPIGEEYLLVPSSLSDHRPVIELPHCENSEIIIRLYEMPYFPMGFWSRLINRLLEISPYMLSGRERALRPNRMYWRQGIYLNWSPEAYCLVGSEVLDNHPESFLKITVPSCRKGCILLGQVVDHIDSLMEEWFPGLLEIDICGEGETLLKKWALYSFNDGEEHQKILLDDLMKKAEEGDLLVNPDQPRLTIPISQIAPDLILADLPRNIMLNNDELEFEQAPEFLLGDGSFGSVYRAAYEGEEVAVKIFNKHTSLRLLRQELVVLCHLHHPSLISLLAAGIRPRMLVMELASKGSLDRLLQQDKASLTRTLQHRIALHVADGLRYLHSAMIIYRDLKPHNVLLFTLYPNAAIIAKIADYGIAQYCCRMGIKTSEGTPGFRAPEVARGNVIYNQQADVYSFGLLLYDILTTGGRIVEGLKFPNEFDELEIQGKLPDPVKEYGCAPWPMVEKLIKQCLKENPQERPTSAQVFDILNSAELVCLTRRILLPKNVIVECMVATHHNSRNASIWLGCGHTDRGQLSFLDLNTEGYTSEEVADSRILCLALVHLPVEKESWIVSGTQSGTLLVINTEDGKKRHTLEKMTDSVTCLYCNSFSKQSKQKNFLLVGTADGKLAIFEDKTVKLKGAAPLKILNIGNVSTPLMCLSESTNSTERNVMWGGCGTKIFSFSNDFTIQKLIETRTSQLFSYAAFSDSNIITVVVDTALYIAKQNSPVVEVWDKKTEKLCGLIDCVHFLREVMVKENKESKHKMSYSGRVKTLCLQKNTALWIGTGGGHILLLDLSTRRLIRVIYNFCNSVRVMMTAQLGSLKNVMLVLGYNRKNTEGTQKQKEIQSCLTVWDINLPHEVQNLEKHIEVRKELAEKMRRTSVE
- ASSAY_COMMENT: Cell-based NanoBRET target engagement assay in HEK293 cells transfected with LRRK2 WT-NanoLuc fusion vector
- CONDITION_CONTEXT: compound treatment 1 h
- Procedure: Example C. Cell-Based NanoBRET Target Engagement Assay in 11EK293 Cells Transiently Transfected with LRRK2 WT- or LRRK2 (G2019S)-Nano Luc Fusion Vector H1EK293 (ATCC) cells were transfected with […] LRRK2 WT or LRRK2 (G2019S) and 9 μg transfection carrier DNA. […] LRRK2 WT and LRRK2 (G2019S) target engagement was measured by NanoBRET assay. […]
IC50 listing for selected compounds.

Some entries whose results are on file:
- COMPOUND: "Cn1nc(-c2n[nH]c3ccc(OC4(C)CC4)cc23)cc(N2CCOCC3(CC3)C2)c1=O"
  IC50: "≤ 50 nM"
- COMPOUND: "CN1CCN(c2cc(-c3n[nH]c4ccc(OC5(C)CC5)cc34)nn(C)c2=O)CCC1C(F)(F)F (stereo not shown)"
  IC50: "≤ 50 nM"
- COMPOUND: "Cn1nc(-c2n[nH]c3ccc(OC4(C)CC4)cc23)cc(N2CCC(C(C)(C)O)C2)c1=O (stereo not shown)"
  IC50: "≤ 50 nM"
- COMPOUND: "Cn1nc(-c2n[nH]c3ccc(OC4(C)CC4)cc23)cc(N2CC(C)(C)C3COCC32)c1=O (stereo not shown)"
  IC50: "≤ 50 nM"
- COMPOUND: "CC(C)Oc1ccc2[nH]nc(-c3cc(N4CCOCC4)c(=O)n(C)n3)c2c1"
  IC50: "≥ 100 nM"
- COMPOUND: "CC(C)Oc1ccc2[nH]nc(-c3cnnc(N4CCC(O)C4)c3)c2c1 (stereo in doubt)"
  IC50: "≥ 100 nM"
- COMPOUND: "Cn1nc(-c2n[nH]c3ccc(OC4(C)CC4)cc23)cc(N2CCCC(C)(O)CC2)c1=O (stereo not shown)"
  IC50: "≤ 50 nM"
- COMPOUND: "C[C@@H]1CN(c2cc(-c3n[nH]c4ccc(OC5(C)CC5)cc34)nn(C)c2=O)C[C@H](C)O1"
  IC50: "≤ 50 nM"
- COMPOUND: "CC1(Oc2ccc3[nH]nc(-c4cc(N5CC(F)C(C)(C)C5)c(=O)n(C5CC5)n4)c3c2)CC1 (stereo not shown)"
  IC50: "≤ 50 nM"
- COMPOUND: "Cn1nc(-c2n[nH]c3ccc(OC4(C)CC4)cc23)cc(N2CCCCC(C)(O)C2)c1=O (stereo not shown)"
  IC50: "≤ 50 nM"

Ask: Name the recorded IC50 of the compound listed here: CC1CCN(c2cc(-c3n[nH]c4ccc(OC5(C)CC5)cc34)nn(C)c2=O)CC(C)O1 (stereo not shown)
Result: ≤ 50 nM

Ask: Please indicate IC50 recorded for Cn1nc(-c2n[nH]c3ccc(OC4(C)CC4)cc23)cc(N2CCCC(F)(F)C2)c1=O
Result: ≤ 50 nM

Ask: Give IC50 for CCn1nc(-c2n[nH]c3ccc(OC(C)C)cc23)cc(N2CCOCC2)c1=O
Result: ≥ 100 nM

Ask: Could you please provide reported IC50 for Cn1nc(-c2n[nH]c3ccc(OC4(C)CC4)cc23)cc(N2CCNCC(C)(O)C2)c1=O (stereo not shown) ? Thanks!
Result: ≥ 100 nM

Ask: Answer with the recorded IC50 for the compound listed here: CN1CCCN(c2cc(-c3n[nH]c4ccc(OC5(C)CC5)cc34)nn(C)c2=O)CC1
Result: ≤ 50 nM

Ask: Given the compound Cn1nc(-c2n[nH]c3ccc(OC4(C)CC4)cc23)cc(N2CCC3(CCC3)C2)c1=O , write its reported IC50.
Result: ≤ 50 nM
